# Test system: Mus musculus
# EXPERIMENT_SUMMARY: Muscle relaxing activity in ip dosed CF-1 albino mouse assessed as depression of dish reflexes
# Type: functional
# COND: Mus musculus, CF-1, ip; read-out: ED50
Each record's class is read off its ED50 using these ranges: low: < 0.4 mg/kg; medium: ≥ 0.4 mg/kg and < 10 mg/kg; high: ≥ 10 mg/kg

1. Cc1nnc(C)n1-c1ccc(Cl)cc1C(N)c1ccccc1Cl (stereo unspecified); medium
2. Cc1nnc(/C=N/N(C)C)n1-c1ccc(Cl)cc1C(N)c1ccccc1Cl (single isomer, unassigned; isomer 1); high
3. Cc1nnc(CN(C)C)n1-c1ccc(Cl)cc1C(N)c1ccccc1Cl (stereo unspecified); medium
4. Cc1cn(-c2ccc(Cl)cc2C(N)c2ccccc2Cl)c(C)n1 (stereo unspecified); high
5. CN1C(=O)CN=C(c2ccccc2)c2cc(Cl)ccc21; low
6. Cc1nnc(CN)n1-c1ccc(Cl)cc1Cc1ccccc1; high
7. Br.Cc1nccn1-c1ccc(Cl)cc1C(N)c1ccccc1 (stereo unspecified); high
8. Cc1nnc2n1-c1ccc(Cl)cc1C(c1ccccc1Cl)=NC2; low
9. Cc1nnc(CN(C)C)n1-c1ccc(Cl)cc1C(=O)c1ccccc1Cl; low
10. CC(C)=NC(c1ccccc1Cl)c1cc(Cl)ccc1-n1c(C)nnc1C (stereo unspecified); medium
